This section presents compounds with their documented composite z-score values.
# tgt: Albumin (Bos taurus)
# assay comment: bovine serum albumin binders on microarray, profiling panel, artefact control for SMM control protein annotation, biochemical, small-molecule microarray, Alexa647 label, 635/667 nm fluorescence (AID 1118);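 note: score merges 667 nm emission intensity and signal-to-noise per printed compound spot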
# test settings: BSA-A647 binding, fluorescence 635 nm, higher = more signal
readout: composite z-score

{"columns": ["compound", "reported result"],
 "data": [
  ["COc1ccc([Si](C)(C)[C@H]2[C@H](CCO)O[C@@]3(C(=O)N(Cc4ccccc4)c4ccc(N5C(=O)c6cccc7cccc5c67)cc43)[C@@H]2C)cc1", 0.151],
  ["NC(=O)[C@H]1[C@@H]2C(=O)O[C@@H](c3ccccc3)[C@@H](c3ccccc3)N2[C@@H](c2ccc(O)cc2)[C@]12C(=O)Nc1ccc(C#CCCO)cc12", 0.0103],
  ["C=CC[C@@]1(C(=O)NCC(O)CO)N=C(c2ccc(OCCCO)cc2)O[C@@H]1c1ccccc1CN=[N+]=[N-] (some centres not stated)", 0.988],
  ["O=C1O[C@@H](c2ccccc2)[C@@H](c2ccccc2)N2[C@@H](c3ccc(O)cc3)[C@]3(C(=O)Nc4ccc(C#CC5(O)CCCCCC5)cc43)[C@@H](C(=O)Nc3nc4ccccc4s3)[C@H]12", 0.839],
  ["COC(=O)c1ccc(C#CC(NP(=O)(c2ccccc2)c2ccccc2)c2ccccc2)cc1 (configuration not stated)", 1],
  ["O=C1C2C=CC(C(O)C(c3ccccc3)c3ccccc3)N(Nc3ccc([N+](=O)[O-])cc3)C2C(=O)N1c1ccccc1 (configuration not stated)", 0.751],
  ["COCCCNC(=O)[C@@H]1c2ccccc2C(=O)N(CC23CC4CC(CC(C4)C2)C3)[C@H]1c1ccc(CO)cc1", -0.507]
]}
